Recorded IC50, one value per entry.
target: Glucose-6-phosphate 1-dehydrogenase (Homo sapiens, UniProt P11413); experiment: Inhibition of human recombinant N-terminal His tagged G6PD expressed in Escherichia coli JM109 (DE3) cells assessed as production of NADPH after 30 mins by Amplite fluorimetric assay
Sequence (P11413 whole entry): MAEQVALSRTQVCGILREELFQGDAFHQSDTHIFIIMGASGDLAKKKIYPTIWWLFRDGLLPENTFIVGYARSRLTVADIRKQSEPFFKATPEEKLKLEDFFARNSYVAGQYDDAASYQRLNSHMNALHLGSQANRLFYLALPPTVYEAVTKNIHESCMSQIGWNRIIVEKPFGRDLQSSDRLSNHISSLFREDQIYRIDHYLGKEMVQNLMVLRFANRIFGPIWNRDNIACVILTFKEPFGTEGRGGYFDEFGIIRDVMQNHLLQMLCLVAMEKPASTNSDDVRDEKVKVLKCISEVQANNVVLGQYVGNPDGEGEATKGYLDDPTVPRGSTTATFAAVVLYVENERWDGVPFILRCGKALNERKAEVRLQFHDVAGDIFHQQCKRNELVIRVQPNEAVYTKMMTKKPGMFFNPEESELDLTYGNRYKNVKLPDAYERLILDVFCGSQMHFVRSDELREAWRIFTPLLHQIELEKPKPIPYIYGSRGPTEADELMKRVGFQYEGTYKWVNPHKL
property_name: IC50

1. C[C@]12CC[C@@H](NS(C)(=O)=O)C[C@@H]1CC[C@@H]1[C@@H]2CC[C@]2(C)C(=O)CC[C@@H]12 = > 200 µM
2. C[C@]12CC[C@H](O)C[C@@H]1CC[C@@H]1[C@@H]2CC[C@@]2(C)[C@H]1CC[C@@]21CO1 = > 200 µM
3. C/C(=N/O)[C@H]1CC[C@H]2[C@@H]3CC[C@H]4C[C@@H](O)CC[C@]4(C)[C@H]3CC[C@]12C = > 200 µM
